- STUDY_TARGET: Thromboxane-A synthase (Homo sapiens, UniProt P24557)
- METHOD: In vitro Inhibition of thromboxane synthase from human blood platelet microsomes
Entries and their pIC50 values follow.
# pIC50 is unitless: minus log10 of the molar concentration; print number only

For orientation, consider the following solved cases.
MOLECULE: CC(C)(Oc1ccc(S(C)(=O)=O)cc1)C1OCC(C/C=C\CCC(=O)O)C(c2cccnc2)O1 (centres undefined)
pIC50: 7.47
//
MOLECULE: CC(C)(Oc1ccccc1F)C1OCC(C/C=C\CCC(=O)O)C(c2cccnc2)O1 (centres undefined)
pIC50: 7.35
//
MOLECULE: COc1ccc(OC(C)(C)C2OCC(C/C=C\CCC(=O)O)C(c3cccnc3)O2)c([N+](=O)[O-])c1 (centres undefined)
pIC50: 7.43

INPUT: Fill in reported pIC50 for this entry: CC(C)(Oc1ccccc1Br)C1OCC(C/C=C\CCC(=O)O)C(c2cccnc2)O1 (centres undefined)
OUTPUT: 7.54

INPUT: In one line, give reported pIC50 of the entry CC(C)(Oc1ccc(F)cc1[N+](=O)[O-])C1OCC(C/C=C\CCC(=O)O)C(c2cccnc2)O1 (centres undefined) .
OUTPUT: 7.70

INPUT: Supply measured pIC50 of CSc1ccccc1OC(C)(C)C1OCC(C/C=C\CCC(=O)O)C(c2cccnc2)O1 (centres undefined) in your reply.
OUTPUT: 7.44

---

# pIC50 annotations
- STUDY_TARGET: Thromboxane-A synthase (Homo sapiens)
- METHOD: In vitro Inhibition of thromboxane synthase from human blood platelet microsomes
The value called pIC50 is obtained by taking minus log10 of the concentration in mol/L.

Some entries whose results are on file:
COMPOUND: CC(C)(C1OCC(C/C=C\CCC(=O)O)C(c2cccnc2)O1)S(=O)(=O)c1ccccc1 (centres undefined)
pIC50: 7.40
--
COMPOUND: CC(C)(Oc1ccccc1)C1OCC(C/C=C\CCC(=O)O)C(c2cccnc2)O1 (centres undefined)
pIC50: 7.28
--
COMPOUND: Cc1ccc(OC(C)(C)C2OCC(C/C=C\CCC(=O)O)C(c3cccnc3)O2)c([N+](=O)[O-])c1 (stereo in doubt; 7w)
pIC50: 7.57

INPUT: Enter pIC50 (test system Thromboxane-A synthase (Homo sapiens)) for N#Cc1ccccc1C1OCC(C/C=C\CCC(=O)O)C(c2cccnc2)O1 (centres undefined)
OUTPUT: 7.27

INPUT: Report its pIC50 with Thromboxane-A synthase (Homo sapiens) as the test system: CC(C)(Oc1ccc(Br)cc1)C1OCC(C/C=C\CCC(=O)O)C(c2cccnc2)O1 (stereo in doubt; 7b)
OUTPUT: 7.29

---

- STUDY_TARGET: UniProtKB Q16647
- METHOD: In vitro inhibition of Prostaglandin I2 synthase in cultured human endothelial cells
Measured pIC50 accompanies every entry in the list below.
Worth noting: pIC50 values are minus log10 of concentrations stated in mol/L.

COMPOUND: CSc1ccc(OC(C)(C)C2OCC(C/C=C\CCC(=O)O)C(c3cccnc3)O2)c([N+](=O)[O-])c1 (stereo not given)
READOUT_VALUE: 5.30
//
COMPOUND: CC(C)(Cc1ccccc1)C1OCC(C/C=C\CCC(=O)O)C(c2cccnc2)O1 (stereo not given)
READOUT_VALUE: 4.89
//
COMPOUND: CC(C)(Oc1ccccc1C#N)C1OCC(C/C=C\CCC(=O)O)C(c2cccnc2)O1 (stereo not given)
READOUT_VALUE: 5.52

Next, consider the following compound.
INPUT: Give pIC50 only, for CC(C)(Cc1ccc(F)cc1)C1OCC(C/C=C\CCC(=O)O)C(c2cccnc2)O1 (stereo not given) , using UniProtKB Q16647 data.
OUTPUT: 5.70

---

- STUDY_TARGET: Prostacyclin synthase (Homo sapiens, UniProt Q16647)
- Sequence (Q16647 whole entry): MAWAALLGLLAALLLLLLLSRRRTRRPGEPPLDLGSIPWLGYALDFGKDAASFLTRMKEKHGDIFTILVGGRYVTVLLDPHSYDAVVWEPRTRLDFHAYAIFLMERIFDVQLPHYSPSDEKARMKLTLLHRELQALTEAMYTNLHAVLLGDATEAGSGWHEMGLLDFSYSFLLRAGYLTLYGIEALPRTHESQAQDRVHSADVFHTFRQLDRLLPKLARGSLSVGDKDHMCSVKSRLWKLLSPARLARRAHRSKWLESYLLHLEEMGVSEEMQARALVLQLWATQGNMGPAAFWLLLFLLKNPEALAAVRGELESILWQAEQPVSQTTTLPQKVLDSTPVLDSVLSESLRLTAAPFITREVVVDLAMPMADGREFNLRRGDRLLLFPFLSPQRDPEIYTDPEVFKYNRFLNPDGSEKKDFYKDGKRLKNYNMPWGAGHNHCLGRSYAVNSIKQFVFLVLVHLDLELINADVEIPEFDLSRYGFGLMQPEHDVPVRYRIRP
- METHOD: In vitro inhibition of Prostaglandin I2 synthase in cultured human endothelial cells
Reported values of IC50 for individual entries
Give the number; µM is assumed, so skip it.

Worked set:
COMPOUND: Cc1cccc(C#N)c1OC(C)(C)C1OCC(C/C=C\CCC(=O)O)C(c2cccnc2)O1 (centres undefined)
READOUT_VALUE: 60
--
COMPOUND: Cc1ccc(OC(C)(C)C2OCC(C/C=C\CCC(=O)O)C(c3cccnc3)O2)c([N+](=O)[O-])c1 (stereo in doubt; 7x)
READOUT_VALUE: 28
--
COMPOUND: CC(C)(Oc1ccc(F)cc1)C1OCC(C/C=C\CCC(=O)O)C(c2cccnc2)O1 (centres undefined)
READOUT_VALUE: 2
--
COMPOUND: CC(C)(Oc1ccccc1Br)C1OCC(C/C=C\CCC(=O)O)C(c2cccnc2)O1 (centres undefined)
READOUT_VALUE: 7
--
COMPOUND: O=C(O)CC/C=C\CC1COC(c2ccc(Cl)cc2Cl)OC1c1cccnc1 (centres undefined)
READOUT_VALUE: 2.5

INPUT: Please give measured IC50 of the following entry: Cc1ccc(OC(C)(C)C2OCC(C/C=C\CCC(=O)O)C(c3cccnc3)O2)c(C#N)c1 (stereo in doubt; 7af)
OUTPUT: 12

---

pIC50 overview
- STUDY_TARGET: UniProt Q16647
- METHOD: In vitro inhibition of Prostaglandin I2 synthase in cultured human endothelial cells
Notebook: values listed as pIC50 are -log10 of the concentration (mol/L).

INPUT: Hello, please tell me recorded pIC50 for this one: CC(C)(Oc1ccc(F)cc1[N+](=O)[O-])C1OCC(C/C=C\CCC(=O)O)C(c2cccnc2)O1 (stereo not drawn)
OUTPUT: 5.05

INPUT: Report measured pIC50; entry is CC(C)(Oc1ccc(S(C)(=O)=O)cc1)C1OCC(C/C=C\CCC(=O)O)C(c2cccnc2)O1 (stereo not drawn)
OUTPUT: 5.10

INPUT: Check the records and state pIC50 for CC(C)(Oc1ccccc1S(C)(=O)=O)C1OCC(C/C=C\CCC(=O)O)C(c2cccnc2)O1 (stereo not drawn)
OUTPUT: 5.70

INPUT: Tell me measured pIC50 for COC(=O)c1ccccc1OC(C)(C)C1OCC(C/C=C\CCC(=O)O)C(c2cccnc2)O1 (stereo not drawn) please.
OUTPUT: 4.14

INPUT: Annotate the compound CC(C)(Oc1ccc(C#N)cc1)C1OCC(C/C=C\CCC(=O)O)C(c2cccnc2)O1 (stereo not drawn) with its measured pIC50.
OUTPUT: 5.40

---

In this section, each of the compounds is paired with its reported IC50.
- STUDY_TARGET: Prostacyclin synthase (Homo sapiens, UniProt Q16647)
- METHOD: In vitro inhibition of Prostaglandin I2 synthase in cultured human endothelial cells
Form entry: value (µM) — number only.

// known answers, use as guide
COMPOUND: CC(=O)c1ccc(OC(C)(C)C2OCC(C/C=C\CCC(=O)O)C(c3cccnc3)O2)c([N+](=O)[O-])c1 (centres undefined)
UNIT_LABEL: µM
IC50: 4
//
COMPOUND: Cc1ccc(OC(C)(C)C2OCC(C/C=C\CCC(=O)O)C(c3cccnc3)O2)cc1 (centres undefined)
UNIT_LABEL: µM
IC50: 25
//
COMPOUND: COc1ccc(OC(C)(C)C2OCC(C/C=C\CCC(=O)O)C(c3cccnc3)O2)c([N+](=O)[O-])c1 (centres undefined)
UNIT_LABEL: µM
IC50: 23
//
COMPOUND: O=C(O)CC/C=C\CC1COC(c2ccc([N+](=O)[O-])cc2)OC1c1cccnc1 (centres undefined)
UNIT_LABEL: µM
IC50: 13
//
COMPOUND: Cc1ccc(OC(C)(C)C2OCC(C/C=C\CCC(=O)O)C(c3cccnc3)O2)c(C#N)c1 (stereo in doubt; 7ac)
UNIT_LABEL: µM
IC50: 47

Shift focus to the following entry.
INPUT: Identify measured IC50 associated with CC(C)(Oc1cccc(F)c1)C1OCC(C/C=C\CCC(=O)O)C(c2cccnc2)O1 (centres undefined)
OUTPUT: 40

---

- STUDY_TARGET: UniProt:P24557
- Sequence (P24557 whole entry): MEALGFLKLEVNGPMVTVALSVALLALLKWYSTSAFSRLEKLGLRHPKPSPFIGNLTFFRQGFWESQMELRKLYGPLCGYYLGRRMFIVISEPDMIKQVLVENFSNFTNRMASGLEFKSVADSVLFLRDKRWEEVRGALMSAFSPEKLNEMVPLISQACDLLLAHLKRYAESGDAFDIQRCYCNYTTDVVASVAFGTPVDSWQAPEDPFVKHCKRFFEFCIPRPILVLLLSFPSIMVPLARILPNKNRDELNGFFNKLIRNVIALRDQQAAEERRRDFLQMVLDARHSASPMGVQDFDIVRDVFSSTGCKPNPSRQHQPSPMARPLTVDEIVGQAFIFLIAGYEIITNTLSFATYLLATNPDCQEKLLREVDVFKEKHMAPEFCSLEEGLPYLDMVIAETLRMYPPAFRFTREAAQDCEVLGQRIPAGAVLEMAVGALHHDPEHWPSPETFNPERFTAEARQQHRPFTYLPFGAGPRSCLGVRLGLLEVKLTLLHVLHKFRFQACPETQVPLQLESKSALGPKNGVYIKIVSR
- METHOD: In vitro Inhibition of thromboxane synthase from human blood platelet microsomes
pIC50 by entry:
Quick note: pIC50 means taking -log10 of the concentration in moles per liter.

Field: example entries. Status: answers known.
MOLECULE: Cc1ccc(C#N)c(OC(C)(C)C2OCC(C/C=C\CCC(=O)O)C(c3cccnc3)O2)c1 (centres undefined)
pIC50: 7.30
//
MOLECULE: O=C(O)CC/C=C\CC1COC(c2ccccc2Cl)OC1c1cccnc1 (centres undefined)
pIC50: 7.32
//
MOLECULE: CSc1ccc(OC(C)(C)C2OCC(C/C=C\CCC(=O)O)C(c3cccnc3)O2)cc1 (centres undefined)
pIC50: 7.41
//
MOLECULE: CC(C)(Sc1ccccc1)C1OCC(C/C=C\CCC(=O)O)C(c2cccnc2)O1 (centres undefined)
pIC50: 7.40
//
MOLECULE: CC(C)(Oc1ccc(F)cc1C#N)C1OCC(C/C=C\CCC(=O)O)C(c2cccnc2)O1 (centres undefined)
pIC50: 7.82
//
MOLECULE: COc1ccc(OC(C)(C)C2OCC(C/C=C\CCC(=O)O)C(c3cccnc3)O2)cc1 (centres undefined)
pIC50: 7.39

INPUT: Look up and report measured pIC50 (UniProt:P24557) for the following molecule: CC(C)(C)c1ccc(OC(C)(C)C2OCC(C/C=C\CCC(=O)O)C(c3cccnc3)O2)cc1 (centres undefined)
OUTPUT: 6.55

INPUT: Param request: pIC50 | system UniProt:P24557 | item O=C(O)CC/C=C\CC1COC(c2cccnc2)OC1c1cccnc1 (centres undefined)
OUTPUT: 6.66

INPUT: Please report the measured pIC50 for Cc1ccc(SC(C)(C)C2OCC(C/C=C\CCC(=O)O)C(c3cccnc3)O2)c([N+](=O)[O-])c1 (centres undefined) tested on UniProt:P24557.
OUTPUT: 7.52

INPUT: # return pIC50 for CC(C)(Oc1ccccc1S(C)(=O)=O)C1OCC(C/C=C\CCC(=O)O)C(c2cccnc2)O1 (centres undefined) , test system: UniProt:P24557
OUTPUT: 7.35

INPUT: Enter measured pIC50, system UniProt:P24557, for the molecule shown: CC(C)(Oc1cccc(F)c1)C1OCC(C/C=C\CCC(=O)O)C(c2cccnc2)O1 (centres undefined)
OUTPUT: 7.59

INPUT: Fill: pIC50 (UniProt:P24557) for this molecule O=C(O)CC/C=C\CC1COC(c2cccc3ccccc23)OC1c1cccnc1 (centres undefined)
OUTPUT: 7.40

INPUT: Give reported pIC50 for O=C(O)CC/C=C\CC1COC(c2cccs2)OC1c1cccnc1 (centres undefined) (UniProt:P24557)
OUTPUT: 7.15

INPUT: Under UniProt:P24557: report pIC50 of O=C(O)CC/C=C\CC1COC(c2ccsc2)OC1c1cccnc1 (centres undefined) .
OUTPUT: 6.30

INPUT: # lookup: UniProt:P24557 pIC50, key = Cc1ccc(OC(C)(C)C2OCC(C/C=C\CCC(=O)O)C(c3cccnc3)O2)c([N+](=O)[O-])c1 (stereo in doubt; 7x)
OUTPUT: 7.72
